Give measured self-splicing fitness (ln) for each item. Keep answers brief.
Assay: self-splicing fitness, log relative to wild type (ln ratio); higher = more splicing; Tetrahymena group I intron in knt gene, E. coli kanamycin selection, DiMSum; sequences stand for … in CUCUCU…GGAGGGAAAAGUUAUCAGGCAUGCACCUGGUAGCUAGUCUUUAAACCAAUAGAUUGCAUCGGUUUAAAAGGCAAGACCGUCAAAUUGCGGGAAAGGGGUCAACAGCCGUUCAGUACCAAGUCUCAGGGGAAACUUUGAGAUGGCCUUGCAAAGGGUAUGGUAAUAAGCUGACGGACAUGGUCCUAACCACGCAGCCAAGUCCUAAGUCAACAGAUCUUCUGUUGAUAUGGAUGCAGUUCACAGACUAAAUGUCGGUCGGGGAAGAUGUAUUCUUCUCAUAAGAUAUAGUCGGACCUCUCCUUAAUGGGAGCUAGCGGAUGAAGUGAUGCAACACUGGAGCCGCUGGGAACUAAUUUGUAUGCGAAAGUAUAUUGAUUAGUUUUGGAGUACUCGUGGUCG;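 further: selection with 25 µg/mL kanamycin versus none on LB agar overnight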
Conditions: 37 °C
// keep it numeric: no unit symbol after the value

Note down self-splicing fitness (ln) recorded for `GCCCAGCAAUAUUACGACUC`
0.916

Note down self-splicing fitness (ln) recorded for `GAUUAGCAAUAUUACGAAGA`
-0.415

Note down self-splicing fitness (ln) recorded for `CAGCAGCAAUAUUACGUGAA`
-0.955

Note down self-splicing fitness (ln) recorded for `AGGUAGCAAUAUUACGUAGU`
-1.62

Note down self-splicing fitness (ln) recorded for `AAUGAGCAAUAUUACGCGUG`
-0.949

Note down self-splicing fitness (ln) recorded for `CGCUAGCAAUAUUACGGGGU`
-3.12

Note down self-splicing fitness (ln) recorded for `AUCUAGCAAUAUUACGAUCA`
-0.116

Note down self-splicing fitness (ln) recorded for `GCAUAGCAAUAUUACGAGGG`
-1.69

Note down self-splicing fitness (ln) recorded for `CUAGAGCAAUAUUACGGUCU`
-3.69

Note down self-splicing fitness (ln) recorded for `UUGGAGCAAUAUUACGCUGA`
-1.5

Note down self-splicing fitness (ln) recorded for `UCUCAGCAAUAUUACGGACC`
-2.13

Note down self-splicing fitness (ln) recorded for `CUUUAGCAAUAUUACGGGAG`
-2.57

Note down self-splicing fitness (ln) recorded for `ACUAAGCAAUAUUACGCUAA`
-1.92

Note down self-splicing fitness (ln) recorded for `UUUCAGCAAUAUUACGGCCA`
-0.656

Note down self-splicing fitness (ln) recorded for `GUACAGCAAUAUUACGCCAU`
-2.32

Note down self-splicing fitness (ln) recorded for `GACUAGCAAUAUUACGGACA`
-0.0878

* * *

Test: self-splicing fitness, log relative to wild type (ln ratio); higher = more splicing; Tetrahymena group I intron in knt gene, E. coli kanamycin selection, DiMSum; sequences stand for … in CUCUCU…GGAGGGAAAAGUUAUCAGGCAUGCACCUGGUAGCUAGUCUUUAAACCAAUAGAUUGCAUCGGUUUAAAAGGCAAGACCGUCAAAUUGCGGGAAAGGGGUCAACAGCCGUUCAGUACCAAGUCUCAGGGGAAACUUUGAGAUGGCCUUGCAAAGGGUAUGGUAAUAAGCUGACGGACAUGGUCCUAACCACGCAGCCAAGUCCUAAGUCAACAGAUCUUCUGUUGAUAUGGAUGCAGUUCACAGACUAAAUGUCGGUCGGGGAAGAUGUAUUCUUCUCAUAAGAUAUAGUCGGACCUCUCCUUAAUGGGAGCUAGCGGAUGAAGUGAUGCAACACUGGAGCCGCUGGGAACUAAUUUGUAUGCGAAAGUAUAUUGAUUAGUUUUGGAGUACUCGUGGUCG
Settings: 37 °C
Give measured self-splicing fitness (ln) for each item. Keep answers brief.
// keep it numeric: no unit symbol after the value

Note down self-splicing fitness (ln) recorded for `AAAUAGCAAUAUUACGCGGG`
-1.23

Note down self-splicing fitness (ln) recorded for `ACAGAGCAAUAUUACGUUCA`
-2.33

Note down self-splicing fitness (ln) recorded for `UCUGAGCAAUAUUACGUAGC`
-2.04

Note down self-splicing fitness (ln) recorded for `CUUCAGCAAUAUUACGUGUG`
-0.859

Note down self-splicing fitness (ln) recorded for `ACCAAGCAAUAUUACGCGUA`
-0.487

Note down self-splicing fitness (ln) recorded for `AAUGAGCAAUAUUACGAGUU`
-1.8

Note down self-splicing fitness (ln) recorded for `CGAGAGCAAUAUUACGAUUG`
-2.09

Note down self-splicing fitness (ln) recorded for `UAUGAGCAAUAUUACGAAUC`
-1.07
